# credit: ChEMBL document CHEMBL3351620

species on record: Homo sapiens; experiment: Selectivity ratio of Ki for human 5HT1A receptor to Ki for human 5HT7 receptor
OBSERVED_PROPERTY: Ratio Ki

{"columns": ["SMILES_REPRESENTATION", "RESULT"],
 "data": [
  ["COc1ccccc1N1CCN(CCCCCCCn2c(=O)oc3ccccc32)CC1", 0.02],
  ["COc1ccccc1N1CCN(CCCCn2c(=O)sc3ccccc32)CC1", 3.16],
  ["O=c1sc2ccccc2n1CCCCN1CCN(c2cccc(Cl)c2)CC1", 3.56]
]}
